The values you see were collected from patent US20260317324A1.

Target under test: BRAF V600E (Homo sapiens, UniProt P15056, V600E)
Construct: endogenous C-terminal HiBiT fusion tag on BRAF V600E allele; endogenous in cells; host or cells: A375 clone 1F10 (CRISPR-Cas9 knock-in of the HiBiT tag; parental A375 from ATCC)
Sequence (P15056 whole entry V600E, the tested form may be a part): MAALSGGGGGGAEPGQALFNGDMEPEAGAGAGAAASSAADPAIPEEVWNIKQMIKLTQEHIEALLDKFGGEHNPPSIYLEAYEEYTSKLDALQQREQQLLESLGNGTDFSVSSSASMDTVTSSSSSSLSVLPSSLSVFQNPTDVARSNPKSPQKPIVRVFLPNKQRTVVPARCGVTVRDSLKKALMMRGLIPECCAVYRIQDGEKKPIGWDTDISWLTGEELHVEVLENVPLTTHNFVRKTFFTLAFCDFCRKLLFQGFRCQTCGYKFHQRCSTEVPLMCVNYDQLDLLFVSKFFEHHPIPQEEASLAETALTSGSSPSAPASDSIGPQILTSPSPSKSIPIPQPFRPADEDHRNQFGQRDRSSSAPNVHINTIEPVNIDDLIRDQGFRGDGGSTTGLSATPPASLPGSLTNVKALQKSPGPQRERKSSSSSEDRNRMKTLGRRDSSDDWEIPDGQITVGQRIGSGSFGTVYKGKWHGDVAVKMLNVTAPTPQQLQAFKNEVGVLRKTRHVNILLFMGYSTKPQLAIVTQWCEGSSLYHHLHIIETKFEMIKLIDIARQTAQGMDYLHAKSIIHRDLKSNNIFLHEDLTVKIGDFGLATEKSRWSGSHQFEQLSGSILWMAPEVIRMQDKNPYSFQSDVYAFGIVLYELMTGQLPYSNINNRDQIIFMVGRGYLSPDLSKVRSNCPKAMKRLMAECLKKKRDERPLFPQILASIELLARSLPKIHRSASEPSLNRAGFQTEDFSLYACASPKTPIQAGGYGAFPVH
Assay info: BRAF HiBiT degradation assay, C-terminal HiBiT-tagged BRAF V600E A375 cells (clone 1F10), Nano-Glo HiBiT Lytic assay
Format: cell-based
Run parameters: A-375; A375 (BRAF V600E); percentage protein degraded at maximal compound effect relative to DMSO
Measured Dmax values are reported for all entries that follow.

Compound	Dmax
CCCS(=O)(=O)Nc1cccc(-c2nc(C3CCN(CC4CCN(C(=O)CC5CCN(c6ccc(C7CCC(=O)NC7=O)cn6)CC5)CC4)CC3)sc2-c2ccnc(N)n2)c1F (racemic)	> 70%

Below: the item to evaluate.
Report Dmax from BRAF V600E (Homo sapiens, UniProt P15056, V600E) testing of CCCS(=O)(=O)Nc1cccc(-c2nc(C3(C)CCN(C(=O)CN4CCC5(CC4)CN(c4ccc6c(c4)C(=O)N(C4CCC(=O)NC4=O)C6=O)C5)CC3)sc2-c2ccnc(N)n2)c1F (racemic)
> 70%

###

Target under test: BRAF D594G (Homo sapiens, UniProt P15056, D594G)
Construct: Horizon Discovery (HCT-116 BRAF−/− cells); host or cells: HCT-116 BRAF−/− cells, clone 63, lentiviral transduction
Sequence (P15056 whole entry D594G): as the sequence (P15056 whole entry V600E, the tested form may be a part) above, with D594G, E600V counted along it
Assay info: BRAF HiBiT degradation assay, C-terminal HiBiT-tagged BRAF D594G overexpressed in HCT-116 BRAF−/− cells (clone 63), Nano-Glo HiBiT Lytic assay
Assay type: cell-based
Run parameters: HCT-116; BRAF D594G; percentage protein degraded at maximal compound effect relative to DMSO
// values below are reported Dmax

Check out these entries, answers already filled in.
Compound	Endpoint value
CCCS(=O)(=O)Nc1cccc(-c2nc(C(C)(C)C)sc2-c2ccnc(Nc3cnn(CC4CCN(CC5CCN(c6ccc7c(=O)n(C8CCC(=O)NC8=O)ccc7c6)CC5)CC4)c3)n2)c1F (racemic)	< 30%
CCCS(=O)(=O)Nc1cccc(-c2nc(C(C)(C)C)sc2-c2ccnc(Nc3cnn(CC4CCN(C(=O)[C@@H]5CCN(c6ccc(C7CCC(=O)NC7=O)cn6)C5)CC4)c3)n2)c1F (mixture of isomers)	30 to 70%
CCCS(=O)(=O)Nc1cccc(-c2nc(C(C)(C)C)sc2-c2ccnc(Nc3cccc(OC4CCN(C[C@H]5CC[C@H](Oc6ccc(C7CCC(=O)NC7=O)cc6)CC5)CC4)c3)n2)c1F (mixture of isomers)	30 to 70%
CCCS(=O)(=O)Nc1cccc(-c2nc(C(C)(C)C)sc2-c2ccnc(Nc3ccc(N4CCN(C(=O)[C@@H]5CCN(c6ccc([C@H]7CCC(=O)NC7=O)cn6)C5)CC4)c(F)c3)n2)c1F (racemic)	30 to 70%

Retrieve Dmax on BRAF D594G (Homo sapiens, UniProt P15056, D594G); query CCCS(=O)(=O)Nc1cccc(-c2nc(C3CCN(C(=O)C4CCN(C(=O)C5CCN(c6ccc(C7CCC(=O)NC7=O)cn6)CC5)CC4)CC3)sc2-c2ccnc(NC3CC3)n2)c1F (racemic)
30 to 70%

Give reported Dmax for CCCS(=O)(=O)Nc1cccc(-c2nc(C(C)(C)C)sc2-c2ccnc(Nc3ccc4c(c3)CCN(CC3CCN(c5ccc6c(=O)n(C7CCC(=O)NC7=O)ccc6c5)CC3)C4)n2)c1F (racemic) (BRAF D594G (Homo sapiens, UniProt P15056, D594G))
30 to 70%

###

Dmax listing for selected compounds.
Target under test: BRAF G469A (Homo sapiens, UniProt P15056, G469A)
Construct: Horizon Discovery (HCT-116 BRAF−/− cells); host or cells: HCT-116 BRAF−/− cells, clone 34, lentiviral transduction
Sequence (P15056 whole entry G469A): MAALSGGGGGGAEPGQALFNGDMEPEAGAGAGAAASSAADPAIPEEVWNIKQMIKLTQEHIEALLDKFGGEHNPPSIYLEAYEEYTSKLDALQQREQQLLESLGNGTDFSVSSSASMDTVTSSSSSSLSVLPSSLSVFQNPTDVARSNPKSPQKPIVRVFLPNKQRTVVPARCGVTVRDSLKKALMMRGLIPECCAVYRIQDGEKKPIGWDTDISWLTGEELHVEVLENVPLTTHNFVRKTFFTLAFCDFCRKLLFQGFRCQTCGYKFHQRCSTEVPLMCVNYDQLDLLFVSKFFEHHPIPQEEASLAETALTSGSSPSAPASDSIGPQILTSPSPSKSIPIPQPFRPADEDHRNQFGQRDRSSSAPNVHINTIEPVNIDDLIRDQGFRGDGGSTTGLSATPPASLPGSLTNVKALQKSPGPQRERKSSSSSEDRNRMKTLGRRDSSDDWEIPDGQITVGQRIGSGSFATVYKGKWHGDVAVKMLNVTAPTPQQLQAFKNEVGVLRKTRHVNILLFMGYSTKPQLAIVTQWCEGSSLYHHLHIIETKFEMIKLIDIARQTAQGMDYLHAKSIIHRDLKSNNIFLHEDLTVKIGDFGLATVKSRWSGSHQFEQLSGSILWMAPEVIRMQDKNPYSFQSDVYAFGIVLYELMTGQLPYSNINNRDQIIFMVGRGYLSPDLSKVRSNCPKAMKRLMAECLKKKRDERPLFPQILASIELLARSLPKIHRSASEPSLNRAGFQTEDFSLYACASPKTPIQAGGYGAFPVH
Assay info: BRAF HiBiT degradation assay, C-terminal HiBiT-tagged BRAF G469A overexpressed in HCT-116 BRAF−/− cells (clone 34), Nano-Glo HiBiT Lytic assay
Type: cell-based
Run parameters: HCT-116; Class 2; BRAF G469A; percentage protein degraded at maximal compound effect relative to DMSO

Solved entries:
Compound	Endpoint	Endpoint value
CCCS(=O)(=O)Nc1cccc(-c2nc(C(C)(C)C)sc2-c2ccnc(Nc3cnn(CC4CCN(C(=O)CN5CCc6cc(C7CCC(=O)NC7=O)ccc6C5)CC4)c3)n2)c1F (racemic) [Compound 119]	Dmax	< 30%
CCCS(=O)(=O)Nc1cccc(-c2nc(C(C)(C)C)sc2-c2ccnc(Nc3cnn(CC4CCN(C(=O)C[C@@H]5CCN(c6ccc(C7CCC(=O)NC7=O)cc6)C5)CC4)c3)n2)c1F (mixture of isomers) [Compound 112]	Dmax	< 30%
CCCS(=O)(=O)Nc1cccc(-c2nc(C(C)(C)C)sc2-c2ccnc(Nc3cnn(C4CCN(CC[C@H]5CCN(c6ccc(C7CCC(=O)NC7=O)cn6)C5)CC4)c3)n2)c1F (mixture of isomers) [Compound 77]	Dmax	< 30%
CCCS(=O)(=O)Nc1cccc(-c2cn(-c3ccc(N4CCN(CC5CCN(c6ccc(C7CCC(=O)NC7=O)cc6F)CC5)CC4)cc3)nc2-c2ccncc2)c1F (racemic) [Compound 18]	Dmax	30 to 70%

Now consider the entry below.
Consider the compound CCCS(=O)(=O)Nc1cccc(-c2nc(C(C)(C)C)sc2-c2ccnc(Nc3ccc(C4CCN(C(=O)C5CCN(c6cc(C7CCC(=O)NC7=O)ccn6)CC5)CC4)cc3)n2)c1F (racemic) [Compound 163] . State its measured Dmax.
< 30%

###

Catalogue of Dmax readings, one per entry.
Target under test: BRAF G466V (Homo sapiens, UniProt P15056, G466V)
Construct: Horizon Discovery (HCT-116 BRAF−/− cells); host or cells: HCT-116 BRAF−/− cells, clone 8, lentiviral transduction
Sequence (P15056 whole entry G466V): as the sequence (P15056 whole entry G469A) above, with G466V, A469G counted along it
Assay info: BRAF HiBiT degradation assay, C-terminal HiBiT-tagged BRAF G466V overexpressed in HCT-116 BRAF−/− cells (clone 8), Nano-Glo HiBiT Lytic assay
Type: cell-based
Run parameters: BRAF G466V (Class 3), HCT-116 BRAF−/− cells; observed Dmax relative to DMSO control

Example entries and their recorded answers appear below.
Compound	Dmax
O=C1CCC(c2ccc(N3CCC(CN4CCN(c5ccc(-n6cc(-c7cc(Cl)cc(NS(=O)(=O)N8CC[C@@H](F)C8)c7F)c(-c7ccncc7)n6)c(F)c5)CC4)CC3)nc2)C(=O)N1 (mixture of isomers)	> 70%
O=C1CC[C@H](c2ccc(N3CCC(CN4CCN(c5ccc(-n6cc(-c7cc(C(F)F)cc(NS(=O)(=O)N8CCCC8)c7F)c(-c7ccncc7)n6)cc5)CC4)CC3)cc2)C(=O)N1	> 70%

Now look at this one.
Let me know recorded Dmax for CCN(C)S(=O)(=O)Nc1cc(F)cc(-c2cn(-c3ccc(N4CCN(CC5CCN(c6ccc(C7CCC(=O)NC7=O)cn6)CC5)CC4)cc3)nc2-c2ccncc2)c1F (racemic) , thanks.
> 70%

###

Reported DC50 values for a set of compounds
Target under test: BRAF G466V (Homo sapiens, UniProt P15056, G466V)
Construct: Horizon Discovery (HCT-116 BRAF−/− cells); host or cells: HCT-116 BRAF−/− cells, clone 8, lentiviral transduction
Assay info: BRAF HiBiT degradation assay, C-terminal HiBiT-tagged BRAF G466V overexpressed in HCT-116 BRAF−/− cells (clone 8), Nano-Glo HiBiT Lytic assay
Type: cell-based
Run parameters: BRAF G466V; DC50 at 50%: fitted conc. at Y=50

Here are 9 compounds together with their reported answers.
Compound	Endpoint	Endpoint value
CCCS(=O)(=O)Nc1cccc(-c2nc(C3CCC4(CC3)CN(C(=O)C3CCN(c5ccc6c(c5)C(=O)N(C5CCC(=O)NC5=O)C6=O)CC3)C4)sc2-c2ccnc(N)n2)c1F (racemic)	DC50	10 to 50 nM
CCN(C)S(=O)(=O)Nc1cccc(-c2nc(C)sc2-c2ccnc(Nc3ccc(N4CCN(CC5CCN(c6ccc(C7CCC(=O)NC7=O)cn6)CC5)CC4)cn3)n2)c1F (racemic)	DC50	10 to 50 nM
CCCS(=O)(=O)Nc1cccc(-c2cn(-c3ccc(N4CCN(CC5CCN(c6ccc(C7CCC(=O)NC7=O)cc6F)CC5)CC4)cc3)nc2-c2ccncc2)c1F (racemic)	DC50	10 to 50 nM
CCCS(=O)(=O)Nc1cccc(-c2cn(-c3ccc(N4CCN(CC5CCN(c6ccc([C@H]7CCC(=O)NC7=O)cc6)CC5)CC4)cc3)nc2-c2ccncc2)c1F	DC50	10 to 50 nM
CCCS(=O)(=O)Nc1cccc(-c2nc(C(C)(C)C)sc2-c2ccnc(Nc3ccc(C4CCN(C(=O)C5CN(c6ccc(C7CCC(=O)NC7=O)cn6)C5)CC4)cc3)n2)c1F (racemic)	DC50	> 500 nM
CCCS(=O)(=O)Nc1cccc(-c2nc(C3CCN(C(=O)C4CCN(C(=O)CC5CCN(c6ccc(C7CCC(=O)NC7=O)cn6)CC5)CC4)CC3)sc2-c2ccnc(N)n2)c1F (racemic)	DC50	< 10 nM
CCCS(=O)(=O)Nc1cccc(-c2nc(C3CCN(CC4CCN(C[C@H]5CC[C@H](Oc6ccc(C7CCC(=O)NC7=O)cc6)CC5)CC4)CC3)sc2-c2ccnc(N)n2)c1F (mixture of isomers)	DC50	> 500 nM
CCCS(=O)(=O)Nc1cccc(-c2nc(C(C)(C)C)sc2-c2ccnc(Nc3cccc(OC4CCN(CC[C@@H]5CCN(c6ccc(C7CCC(=O)NC7=O)cn6)C5)CC4)c3)n2)c1F (mixture of isomers)	DC50	> 500 nM
CCCS(=O)(=O)Nc1cccc(-c2nc(C(C)(C)C)sc2-c2ccnc(Nc3ccc(N4CCN(C(=O)C5CCN(c6ccc(C7CCC(=O)NC7=O)cn6)CC5)CC4)c(F)c3)n2)c1F (racemic)	DC50	> 500 nM

Could you now consider this next compound?
Retrieve DC50 measured for CCCS(=O)(=O)Nc1cccc(-c2nc(C(C)(C)C)sc2-c2ccnc(Nc3cccc(OC4CCN(C[C@H]5CC[C@H](Oc6ccc(C7CCC(=O)NC7=O)cc6)CC5)CC4)c3)n2)c1F (mixture of isomers) and print it.
> 500 nM
